target: LAT1 transporter (Homo sapiens); construct: KB cells endogenously expressing LAT1; endogenous in cells; host or cells: KB cells; assay: KB cell competition assay with 14C-gabapentin; type: cell-based
pIC50: −log10 of the molar value.

COMPOUND | pIC50
NCC1(CC(=O)O)CCCCC1 [Gabapentin] | 3.68

* * *

molecular target: hLAT1 (Homo sapiens, UniProt P08195+Q01650); construct: expressed in transfected cells; assay: LAT1 competition uptake assay in HEK-TREx-LAT1-4F2hc cells with 3H-gabapentin; assay type: cell-based
Sequence (Q01650+P08195 fused): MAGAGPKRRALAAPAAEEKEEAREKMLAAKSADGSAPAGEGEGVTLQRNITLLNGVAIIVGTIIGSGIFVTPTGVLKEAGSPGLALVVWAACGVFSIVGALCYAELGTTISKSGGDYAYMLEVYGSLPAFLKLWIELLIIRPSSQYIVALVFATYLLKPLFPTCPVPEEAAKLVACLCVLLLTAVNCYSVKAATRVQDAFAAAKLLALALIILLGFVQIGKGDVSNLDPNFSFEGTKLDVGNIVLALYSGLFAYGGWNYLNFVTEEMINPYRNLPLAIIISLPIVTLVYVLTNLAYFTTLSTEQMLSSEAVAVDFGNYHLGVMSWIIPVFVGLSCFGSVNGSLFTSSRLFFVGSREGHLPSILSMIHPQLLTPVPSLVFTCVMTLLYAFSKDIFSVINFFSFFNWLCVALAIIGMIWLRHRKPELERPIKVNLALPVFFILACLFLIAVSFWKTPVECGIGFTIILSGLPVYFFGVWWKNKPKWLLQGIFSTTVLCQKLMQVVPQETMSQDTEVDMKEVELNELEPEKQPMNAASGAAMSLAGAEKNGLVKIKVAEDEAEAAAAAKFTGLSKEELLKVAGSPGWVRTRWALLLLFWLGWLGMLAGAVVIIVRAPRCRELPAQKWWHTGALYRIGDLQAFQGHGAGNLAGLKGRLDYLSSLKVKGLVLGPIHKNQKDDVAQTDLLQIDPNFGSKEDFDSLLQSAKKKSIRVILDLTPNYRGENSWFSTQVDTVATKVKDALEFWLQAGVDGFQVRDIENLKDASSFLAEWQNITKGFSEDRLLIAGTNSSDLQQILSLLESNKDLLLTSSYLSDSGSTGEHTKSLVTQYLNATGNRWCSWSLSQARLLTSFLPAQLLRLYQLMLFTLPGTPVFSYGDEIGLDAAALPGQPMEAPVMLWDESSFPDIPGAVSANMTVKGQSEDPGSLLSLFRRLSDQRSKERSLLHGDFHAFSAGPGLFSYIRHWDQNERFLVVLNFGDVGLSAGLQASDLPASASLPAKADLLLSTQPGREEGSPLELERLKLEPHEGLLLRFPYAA
pIC50: −log10 of the molar value.

MOLECULE | pIC50
NCC1(CC(=O)O)CCCCC1 | 3.40

* * *

The molecules listed here are annotated with their pIC50.
Target: LAT1 transporter (Homo sapiens, UniProt Q01650)
Construct: KB cells endogenously expressing LAT1; endogenous in cells; host or cells: KB cells
Sequence (Q01650 whole entry): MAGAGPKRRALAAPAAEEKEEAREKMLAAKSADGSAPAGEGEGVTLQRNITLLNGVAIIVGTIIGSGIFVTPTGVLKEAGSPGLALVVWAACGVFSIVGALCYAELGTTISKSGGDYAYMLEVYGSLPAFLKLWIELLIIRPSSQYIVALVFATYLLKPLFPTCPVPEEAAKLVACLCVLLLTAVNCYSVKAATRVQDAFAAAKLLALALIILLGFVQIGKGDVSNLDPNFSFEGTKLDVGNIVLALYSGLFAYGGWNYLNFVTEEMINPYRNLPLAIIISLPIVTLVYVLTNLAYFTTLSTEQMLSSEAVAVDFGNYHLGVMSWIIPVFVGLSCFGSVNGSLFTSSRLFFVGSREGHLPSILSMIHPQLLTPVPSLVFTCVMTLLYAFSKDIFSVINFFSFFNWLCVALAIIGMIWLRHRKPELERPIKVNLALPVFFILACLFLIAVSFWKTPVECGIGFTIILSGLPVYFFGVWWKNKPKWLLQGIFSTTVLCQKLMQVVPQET
Sequence (P08195 102-630 partner): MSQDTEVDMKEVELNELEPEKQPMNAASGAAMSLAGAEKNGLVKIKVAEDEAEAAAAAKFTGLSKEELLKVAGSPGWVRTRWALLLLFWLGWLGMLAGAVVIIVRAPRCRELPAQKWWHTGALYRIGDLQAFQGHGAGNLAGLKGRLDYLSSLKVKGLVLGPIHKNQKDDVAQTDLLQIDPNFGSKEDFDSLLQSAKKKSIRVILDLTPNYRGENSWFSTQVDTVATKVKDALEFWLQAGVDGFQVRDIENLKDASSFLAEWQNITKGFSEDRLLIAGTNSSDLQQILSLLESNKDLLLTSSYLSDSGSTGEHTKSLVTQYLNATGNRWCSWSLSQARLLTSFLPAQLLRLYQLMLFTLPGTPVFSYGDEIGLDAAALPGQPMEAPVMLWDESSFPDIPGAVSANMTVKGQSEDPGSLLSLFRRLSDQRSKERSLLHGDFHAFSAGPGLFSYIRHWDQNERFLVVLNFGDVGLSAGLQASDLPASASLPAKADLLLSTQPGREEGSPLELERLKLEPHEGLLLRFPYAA
Test: KB cell competition assay with 14C-gabapentin
Type: cell-based
Conditions: KB cells; read-out: Km or IC50, Competition (14C-GP)
Protocol: To increase the throughput of LAT1 compound screening, a mammalian cell assay was developed. Because LAT1 mRNA is expressed at detectable levels in many cancer cell lines, over 20 human cell lines were screened for LAT1 expression using quantitative PCR. […] To determine whether a compound interacts with the LAT1 transporter, a competition-binding assay was developed. […] Scintillation fluid was added to each well, the plates were sealed and counted in a 96-well plate-based scintillation counter. […]
pIC50: −log10 of the molar value.
MEASURE_NAME: pIC50

MOLECULE | MEASURE_NAME | REPORTED
N[C@@H](Cc1ccccc1)C(=O)O | pIC50 | 4.00
N[C@@H](Cc1ccc(O)c(O)c1)C(=O)O | pIC50 | 3.72
